# Test system: A687V EZH2 mutant SUP-B8 cell line
# assay-summary: 6-day cell proliferation assay (CellTiter-Glo), SUP-B8
# Type: cell-based, human
# assay-setup: Homo sapiens, 144 h; SUP-B8 (heterozygous A687V EZH2), 6 days, CellTiter-Glo; read-out: dose required to inhibit 50% of cell proliferation (growth IC50)
readout-name: IC50 (nM)
Give the quantity in nM, number only.

Prompt line: # get_value(readout='IC50', item= CC[C@H](C)n1cc(C)c2c(C(=O)NCc3c(C)cc(C)[nH]c3=O)cc(-c3ccc(N4CCNCC4)nc3)cc21 [GSK126] )
Response line: 441
